Target: T1, CEACAM1 (Sino Biological) (human, UniProt P13688 35-428, limits assumed)
T1 construct: may be the same as CEACAM1-HIS; also called hCEACAM1; biotinylated soluble CEACAM1
T1 sequence: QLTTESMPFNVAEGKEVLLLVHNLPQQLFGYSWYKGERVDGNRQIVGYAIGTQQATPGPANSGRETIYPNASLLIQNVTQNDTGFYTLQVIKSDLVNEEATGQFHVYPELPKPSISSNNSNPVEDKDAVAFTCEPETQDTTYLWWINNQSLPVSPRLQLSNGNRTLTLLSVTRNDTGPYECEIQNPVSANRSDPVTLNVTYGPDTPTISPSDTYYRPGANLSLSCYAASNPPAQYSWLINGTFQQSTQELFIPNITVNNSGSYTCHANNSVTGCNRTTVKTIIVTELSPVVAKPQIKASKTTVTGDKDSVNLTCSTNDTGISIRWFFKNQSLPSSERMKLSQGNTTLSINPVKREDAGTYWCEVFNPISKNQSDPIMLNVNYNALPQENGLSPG
Test: SPR single-cycle
value.kind: fold better than Parent (KD) (fold)
Report the value in fold with no unit label.

# input Provide fold better than Parent (KD) value for the following binder: He1/L19 (antibody, IgG4, V domains shown, IgG4 S241P, kappa) VH: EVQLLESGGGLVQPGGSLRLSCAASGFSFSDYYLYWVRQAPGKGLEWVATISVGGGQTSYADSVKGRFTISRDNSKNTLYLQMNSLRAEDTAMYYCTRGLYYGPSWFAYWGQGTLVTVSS VL: DIVMTQSPDSLAVSLGERATINCKSSQSLLNSANQKNYLAWYQQKPGQPPKLLIYFASTRESGVPDRFSGSGSGTDFTLTISSLQAEDVAVYYCQSHIYPNFTFGGGTKVEIK
# output 0.55

# input Given the binder He3/L4 #1 (antibody, IgG4, V domains shown, IgG4 S241P, kappa) VH: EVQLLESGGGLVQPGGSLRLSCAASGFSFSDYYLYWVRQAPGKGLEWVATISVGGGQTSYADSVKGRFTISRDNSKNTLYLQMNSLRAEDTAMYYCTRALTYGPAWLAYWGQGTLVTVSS VL: DIVMTQSPDSLAVSLGERATINCKSSQSLLNSANQKNYLAWYQQKPGQPPKLLIYFASTRESGVPDRFSGSGSGTDFTLTISSLQAEDVAVYYCQSHFPYYYTFGGGTKVEIK , write its reported fold better than Parent (KD).
# output 1.61

# input Please give measured fold better than Parent (KD) of the following entry: Parent VH/L4#2 (antibody, IgG4, V domains shown, IgG4 S241P, kappa; also called VHp/L4 #2; VH2 N56Q / 4#2) VH: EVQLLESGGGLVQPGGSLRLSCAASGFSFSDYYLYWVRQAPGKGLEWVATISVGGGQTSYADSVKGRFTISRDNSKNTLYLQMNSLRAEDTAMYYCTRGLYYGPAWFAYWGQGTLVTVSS VL: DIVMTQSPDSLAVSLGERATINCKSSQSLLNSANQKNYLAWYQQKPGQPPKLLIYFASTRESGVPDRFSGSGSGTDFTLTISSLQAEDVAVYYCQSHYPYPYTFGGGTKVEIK
# output 3.38
